Data credit: PubChem BioAssay (NCI)

TGI reference
Tested on: MDA-MB-468 breast
Assay: NCI tumour cell line growth inhibition, 48 h

Example entries and their recorded answers appear below.
Compound | TGI
COc1ccc(-n2nc(C)c3c2N(C)C2(C)C[C@@H]4C3(C)[C@@H]3CC4(C2)N(C)c2c(c(C)nn2-c2ccc(OC)cc2)[C@H]3C)cc1 (stereo partly drawn) | 64.8 µM
O=[N+]([O-])c1cccc(-c2ncc(-c3ccc(Cl)cc3Cl)[nH]2)c1 | 3.54 µM
CC(C)(C)c1cc(C(=O)Nc2cc3ccccc3cc2C(=O)NCCN)cc(C(C)(C)C)c1 | 0.989 µM

Using MDA-MB-468 breast as the test system, report measured TGI of `CC(=O)Nc1ccc(-n2cnc3cc(-c4ccc(OCCN5CCCCC5)cc4)ccc32)cc1` . 14.1 µM

Provide TGI, system MDA-MB-468 breast, entry `CC(=O)N[C@@H]1CCC[C@H](C(=O)Nc2cc(-c3cnn4c3CC(C)(C)C4)c(Cl)cn2)C1` 0.049 µM

Retrieve TGI on MDA-MB-468 breast; query `C#Cc1ccc(-n2c(/C=C/c3cc(OC)c(OC)c(OC)c3)nc3ncccc3c2=O)cc1` > 100 µM
